Test system: OVCAR-5
ASSAY DETAILS: SRB 48 h growth assay, Ovarian OVCAR-5
Format: cell-based, human
SETUP CONDITIONS: Homo sapiens, OVCAR-5, Ovarian, read-out: Growth Inhibition GI50
Measured GI50 values are reported for all entries that follow.

- QUERY SMILES: "C#Cc1ccc(-n2c(/C=C/c3ccc(C(F)(F)F)cc3)nc3ncccc3c2=O)cc1"
  UOM: "µM"
  QUALIFIER OPERATOR: "="
  GI50: 1.94
- QUERY SMILES: "C#Cc1ccc(-n2c(/C=C/c3ccc4ccccc4n3)nc3ncccc3c2=O)cc1"
  UOM: "µM"
  QUALIFIER OPERATOR: "="
  GI50: 0.31
- QUERY SMILES: "C#Cc1ccc(-n2c(/C=C/c3ccc4ccccc4c3)nc3ncccc3c2=O)cc1"
  UOM: "µM"
  QUALIFIER OPERATOR: "="
  GI50: 6.88
- QUERY SMILES: "C#Cc1ccc(-n2c(/C=C/c3ccc(O)cc3)nc3ncccc3c2=O)cc1"
  UOM: "µM"
  QUALIFIER OPERATOR: "="
  GI50: 32.3
- QUERY SMILES: "C#Cc1ccc(-n2c(/C=C/c3cc(OC)c(OC)c(OC)c3)nc3ncccc3c2=O)cc1"
  UOM: "µM"
  QUALIFIER OPERATOR: ">"
  GI50: 100
